Please respond with reported glycan array binding signal (z-score) for every item in the list.
SYSTEM UNDER TEST: Neu5Ac(a2-6)Gal(b1-4)GlcNAc(b1-2)Man(a1-6)Man(b1-4)GlcNAc(b1-4)GlcNAc
PROTOCOL TEXT: glycan array binding signal (z-score within array); higher = stronger binding
CONDITION PARAMETERS: glycan notation: IUPAC condensed, linker removed
The entries come from a sample that favours the strongest signals as a whole.
One number for each entry.

Here's what some known entries look like.
# BINDER, glycan array binding signal (z-score)
rows = [
    ("SJCP3842 (Schistosoma japonicum) (protein) MFKMRIINLVNISTVLLLINLLQTKSRLVGKENGFMLTVSIYGAQLSDKMTSVPVSWTIDYEDPEKSAFKKLVTDSCDTFSEYVKSQIPKGSVDGQCTSHIFQRPGSGSGVSISLTLSFIYVDVTQPDTVALKTELEKHFANFVTIHSHKITQAQFRINQKAIVIPTGDKDAIDGSKWKIIAIIALVALAIVVIGGFIYICVK", 2.88),
    ("Epa20 (Candida glabrata) (protein) MGSSHHHHHHSSGLVPRGSHMASSNIPNNYPLGCSNKYSGHLPGLKMELYSYNYVNPRHPDPQNPGKLDQLYDPNLLGTYECFDSSYKDINYPRVGYKSKTLIGRSDGVSGILNFNFVPPWGCMPQKGQLPPAYNFKSNITLSNFTMILFGYFKPKISGNHIFSLHGDDLIYLNFGAGNAFDCCRQESSADNFGNYQAFSLWGINWEKKTLTVYLDMNTYYPIRIFYNNRDYQAIFNFSFKTEFDSSPVIDFQDYFFFLRDIDGGCPGEV", -0.108),
]

Short answer for Epa22 (Candida glabrata) (protein) MGSSHHHHHHSSGLVPRGSHMKRALSSQNPFGYPIGCSPQSTNVIPGLTMELYSYPIVSGTPPNCYDASYVDPEYPRTGYLKRKMIGKSTGVTGSLNYKFSVEKACMVKYGNLPAGYNYNEPLTVSNFTMLLYGYFKPQTSGIHTFFVNADDLLYINFGAGNAFDCCKREDSKFKLGEYVAYDIWHVDSSKNKVSLNLEKDVYYPIRMFFNNIGKDSSLDLSFSVNGAVEHITDFSGYLYSVPDQPDACPAPIGYDTTCK : glycan array binding signal (z-score) was -0.426
